Test system: rabbit reticulocyte lysates (RRLs)
measurement-notes: Translation efficiency of capped luciferase mRNA in RRL
Format: biochemical
run-conditions: ApppG-capped mRNA translation subtracted before normalization to m^7GpppG
Item-by-item account of relative cap-dependent translation efficiency
Please reply with the value in numeric form only.

Past entries and their recorded results:
CO[C@@H]1[C@H](O)[C@@H](COP(=O)(O)OP(=O)([O-])OP(=O)(O)OC[C@H]2O[C@@H](n3cnc4c(=O)[nH]c(N)nc43)[C@H](O)[C@@H]2O)O[C@H]1n1c[n+](C)c2c(O)nc(N)nc21 [m2^7,2′-OGpppG]	1.96
CO[C@@H]1[C@H](O)[C@@H](COP(=O)([O-])OP(O)(=S)OP(=O)(O)OC[C@H]2O[C@@H](n3cnc4c(=O)[nH]c(N)nc43)[C@H](O)[C@@H]2O)O[C@H]1[n+]1cn(C)c2c(=O)[nH]c(N)nc21 (single isomer, unassigned) [m2^7,2′-OGppSpG D2, m2^7,2′-OGppSpG]	2.83
Nc1nc2c(ncn2[C@@H]2O[C@H](COP(=O)(O)OP(=O)(O)OP(=O)(O)OC[C@H]3O[C@@H](n4cnc5c(N)ncnc54)[C@H](O)[C@@H]3O)[C@@H](O)[C@H]2O)c(=O)[nH]1 [ApppG]	0.00
Cn1c[n+]([C@@H]2O[C@H](COP(=O)(O)OP(=O)([O-])OP(=O)(O)OC[C@H]3O[C@@H](n4cnc5c(=O)[nH]c(N)nc54)[C@H](O)[C@@H]3O)[C@@H](O)[C@H]2O)c2nc(N)[nH]c(=O)c21 [m^7GpppG]	1
CO[C@H]1[C@@H](O)[C@H]([n+]2cn(C)c3c(=O)[nH]c(N)nc32)O[C@@H]1COP(=O)([O-])OP(=O)(O)OP(=O)(O)OC[C@H]1O[C@@H](n2cnc3c(=O)[nH]c(N)nc32)[C@H](O)[C@@H]1O [m2^7,3′-OGpppG]	1.99

Please turn your attention to the following entry.
The value of relative cap-dependent translation efficiency recorded for CO[C@@H]1[C@H](O)[C@@H](COP(=O)([O-])OP(O)(=S)OP(=O)(O)OC[C@H]2O[C@@H](n3cnc4c(=O)[nH]c(N)nc43)[C@H](O)[C@@H]2O)O[C@H]1[n+]1cn(C)c2c(=O)[nH]c(N)nc21 (single isomer, unassigned) [m2^7,2′-OGppSpG D1, m2^7,2′-OGppSpG] when tested on rabbit reticulocyte lysates (RRLs) reads 2.27
